The values you see were collected from PubChem BioAssay (NCI).

Give measured TGI for each item. Keep answers brief.
Test system: SK-MEL-2 melanoma
Experiment: NCI tumour cell line growth inhibition, 48 h

Task item: Can you look up the measured TGI of C#COc1cccc(Nc2ncnc3ncc(NC(=O)CCl)cc23)c1 for me?
Reply: > 62.5 µM

Task item: Input CN(C)c1ccc(/C=C(\NC(=O)c2ccccc2)C(=O)Nc2ccccc2C(=O)O)cc1
Reply: > 100 µM

Task item: Input C[C@]12C=CC(=O)C=C1CC[C@@H]1[C@@H]2C(=O)C[C@@]2(C)[C@H]1CC[C@]2(O)C(=O)CO
Reply: > 100 µM

###

Tested on: SN12C renal
Assay: NCI tumour cell line growth inhibition, 48 h
MEASURED_METRIC: TGI

Task item: Can you look up the measured TGI of O=c1c2ccccc2c(=O)c2c1cc(Cl)c1[nH]c3c([nH]c12)c(Cl)cc1c(=O)c2ccccc2c(=O)c13 for me?
Reply: > 100 µM

Task item: Input COc1ccc(/C=C\c2cc(OC)c(OC)c(OC)c2)cc1OC(=O)c1cccc(Cn2cc(CCOC(=O)c3cccc(Cn4nnc5c4C(=O)c4ccccc4C5=O)c3)nn2)c1
Reply: > 100 µM

Task item: Input CCn1c(=O)ccc2ccc(N(CCO)CCO)nc21
Reply: > 100 µM

Task item: Input Clc1ccc(-c2nn3ncccc3c2-c2ccnc(Nc3ccccc3)n2)cc1
Reply: > 25 µM
